Values compiled from the supplement of paper PMC10567573.

B1: ZNF8 (parent)
chain: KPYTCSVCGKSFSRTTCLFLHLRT

Variants of: B1
ASSAY_PROTOCOL: protein stability index of a GFP-peptide fusion (GPS, HEK-293T) (PSI 1-6); higher = more stable;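 further: lentivirally expressed fusions sorted by FACS into six bins by GFP to DsRed ratio, PSI derived from sequencing read proportions per bin multiplied by bin number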
MEASUREMENT_CONDITIONS: c terminus: a fixed tail appended

RECORD_SEQUENCE: KPYTCSNCGKSFSRTTCLFLHLRT [V7N]
protein stability index: 2.15

RECORD_SEQUENCE: KPYTCSVCGKSFSRTTCLFLHLRL [T24L]
protein stability index: 1.58

RECORD_SEQUENCE: KPYTCQVCGKSFSRTTCLFLHLRT [S6Q]
protein stability index: 2.13

RECORD_SEQUENCE: KPYTCSVCGKSFSYTTCLFLHLRT [R14Y]
protein stability index: 1.93

RECORD_SEQUENCE: KPYTCFVCGKSFSRTTCLFLHLRT [S6F]
protein stability index: 2.08
